Reference source: patent US8524700B2

Where a name gives a salt, the structure may show the parent alone.
recorded_endpoint: melting point

Qu. Any idea what melting point was measured for COc1cccc(CN2CCc3ccc(S(=O)(=O)NCCC4CCCN4C)cc3C2)c1 (racemic) (as salt: oxalate) ?
Ans. 80 to 107 °C

Qu. Any idea what melting point was measured for COc1ccc(OC)c(CN2CCc3ccc(S(=O)(=O)NCCC4CCCN4C)cc3C2)c1 (racemic) (as salt: oxalate) ?
Ans. 87 to 90 °C

Qu. Any idea what melting point was measured for CCN(CC)CCCNS(=O)(=O)c1ccc2c(c1)CN(C1CCCCC1)CC2 (as salt: oxalate) ?
Ans. 55 to 60 °C

Qu. Any idea what melting point was measured for O=S(=O)(NCCCN1CCN(Cc2ccccc2)CC1)c1ccc2c(c1)CNCC2 (as salt: hydrochloride) ?
Ans. 244 to 249 °C

Qu. Any idea what melting point was measured for CN1CCCC1CCNS(=O)(=O)c1ccc2c(c1)CN(Cc1ccc(Br)cc1)CC2 (racemic) (as salt: oxalate) ?
Ans. 86 to 110 °C

Qu. Any idea what melting point was measured for CCN(CC)CCCNS(=O)(=O)c1ccc2c(c1)CN(C(C)C)CC2 (as salt: oxalate) ?
Ans. 54 to 59 °C

Qu. Any idea what melting point was measured for O=S(=O)(NCCCN1CCCC1)c1ccc2c(c1)CNCC2 (as salt: hydrochloride) ?
Ans. 237 to 241 °C
